Biological target: Human OX2 receptor (Homo sapiens (Human), UniProt O43614)
Sequence (O43614 whole entry): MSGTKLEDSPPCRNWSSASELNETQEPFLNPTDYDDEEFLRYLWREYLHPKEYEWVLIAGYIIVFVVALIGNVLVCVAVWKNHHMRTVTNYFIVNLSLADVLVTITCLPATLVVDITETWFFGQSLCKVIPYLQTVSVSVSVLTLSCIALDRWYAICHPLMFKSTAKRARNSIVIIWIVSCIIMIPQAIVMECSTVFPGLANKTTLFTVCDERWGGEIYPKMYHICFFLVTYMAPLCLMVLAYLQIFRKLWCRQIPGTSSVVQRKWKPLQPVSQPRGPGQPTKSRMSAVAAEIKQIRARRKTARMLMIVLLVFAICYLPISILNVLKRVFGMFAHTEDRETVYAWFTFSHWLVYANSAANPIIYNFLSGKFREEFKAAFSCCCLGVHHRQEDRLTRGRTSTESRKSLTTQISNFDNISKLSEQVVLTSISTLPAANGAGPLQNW
Assay: IPone accumulation assay, CHO cells expressing OX2
Assay type: cell-based
Conditions: antagonism of orexin A (EC80 40 nM)-induced inositol phosphate turnover, read-out: fpKb average OX2 (converted)
Listing of entries alongside the reported Kb.
quantity_measured: Kb

[[record]]
molecule = "CC(=O)Nc1ccc(-n2nccn2)c(C(=O)N[C@H]2CCC[C@@H]2COc2ccc(F)c(F)c2)n1 [Example 9]"
recorded_value = "> 0.2 µM"

[[record]]
molecule = "CC(=O)Nc1ccc(-n2nccn2)c(C(=O)N[C@H]2CCC[C@@H]2COc2ccc(F)cc2F)n1 [Example 17]"
recorded_value = "> 0.0631 µM"

[[record]]
molecule = "CC(=O)Nc1cnc(-n2nccn2)c(C(=O)N[C@H]2CCC[C@@H]2COc2ccc(F)cc2)c1 [Example 25]"
recorded_value = "> 0.631 µM"

[[record]]
molecule = "CC(=O)Nc1ccc(-c2ncccn2)c(C(=O)N[C@H]2CCC[C@@H]2COc2ccc(F)cc2)n1 [Example 14]"
recorded_value = "> 0.398 µM"

[[record]]
molecule = "CC(=O)Nc1ccc(-c2ncccn2)c(C(=O)N(C)[C@H]2CCC[C@@H]2COc2ccc(F)cc2)n1 [Example 18]"
recorded_value = "> 0.501 µM"

[[record]]
molecule = "CC(=O)Nc1ccc(-n2nccn2)c(C(=O)N[C@H]2CCC[C@@H]2COc2ccc(F)cc2)n1 [Example 3]"
recorded_value = "1.26 µM"

[[record]]
molecule = "CC(=O)Nc1ccc(-n2nccn2)c(C(=O)N[C@H]2CCC[C@@H]2COc2ccc(F)cn2)n1 [Example 26]"
recorded_value = "> 1 µM"

